# Test system: SK-MEL-5 melanoma
# TEST_NAME: NCI-60 one-dose screen, 48 h
# CONDITIONS: 10 µM unless noted
The panel holds about 83,000 compounds, 20% with a hit somewhere; the sample as a whole holds those more often. The source made the active and inactive calls. The calls were made as follows: active = growth percent below 10; inactive = the rest.
Outcome codes: active, inactive

{"COMPOUND": "CC[C@@](C)(NC(=O)C(C)(C)NC(=O)[C@@H](NC(=O)[C@@H]1CCCN1C(=O)C(C)(C)NC(=O)[C@H](CC(C)C)NC(=O)CNC(=O)C(C)(C)NC(=O)[C@@H](NC(=O)C(C)(C)NC(=O)[C@H](CCC(N)=O)NC(=O)[C@H](C)NC(=O)C(C)(C)NC(=O)[C@H](C)NC(=O)C(C)(C)NC(=O)[C@@H]1CCCN1C(=O)C(C)(C)NC(C)=O)C(C)C)C(C)C)C(=O)N[C@@H](CCC(N)=O)C(=O)N[C@@H](CCC(N)=O)C(=O)N[C@H](CO)Cc1ccccc1", "DISCRETE_LABEL": "active"}
{"COMPOUND": "COCCOc1ccc(-c2csc(NC(C)=O)n2)cc1NS(=O)(=O)c1cccc2c(N(C)C)cccc12", "DISCRETE_LABEL": "inactive"}
{"COMPOUND": "COc1cc(NC2=C(Cl)C(=O)c3nc(C)ccc3C2=O)cc(OC)c1", "DISCRETE_LABEL": "active"}
{"COMPOUND": "C#C[C@]1(O)CC[C@H]2[C@@H]3CC=C4c5sc(-c6cccc(F)c6)nc5CC[C@]4(C)[C@H]3CC[C@@]21C", "DISCRETE_LABEL": "inactive"}
{"COMPOUND": "COc1ccc(NC(=O)[C@H](C)N)cc1C(=O)Nc1cccc(-c2cc(=O)c3c(OC)c(OC)c(OC)cc3o2)c1", "DISCRETE_LABEL": "inactive"}
{"COMPOUND": "COC(=O)[C@@]1(C)CC[C@]2(C)CC[C@]3(C)C(=CC(=O)[C@@H]4[C@@]5(C)Cc6c(n(CC#CCN7CCN(C)CC7)c7ccccc67)C(C)(C)[C@@H]5CC[C@]43C)[C@@H]2C1", "DISCRETE_LABEL": "inactive"}
{"COMPOUND": "CCc1ccc(NC(=O)N[C@@H](Cc2cccc(C)c2)C(=O)N[C@@H]2C(=O)N3CCC[C@H]3C(=O)N3CCCC[C@H]3C(=O)N[C@@H](CO)C(=O)N3C[C@H](C)C[C@H]3C(=O)O[C@H]2C)c(F)c1", "DISCRETE_LABEL": "active"}
{"COMPOUND": "C#CCOc1ccccc1C(Nc1ccccc1)c1nnnn1C1CCCCC1 (stereo not drawn)", "DISCRETE_LABEL": "inactive"}
{"COMPOUND": "Cn1cc(-c2nn3c(=O)cc(-c4ccccc4)nc3s2)c2cc(F)ccc21", "DISCRETE_LABEL": "inactive"}
{"COMPOUND": "O=C(NNc1nc2cc(F)ccc2n2cncc12)c1cnccn1", "DISCRETE_LABEL": "active"}
{"COMPOUND": "COc1cc2cc(Oc3ccc(NC(=O)c4cccc(C(F)(F)F)c4)cc3)c(C)nc2cc1OCCN(C)C", "DISCRETE_LABEL": "active"}
{"COMPOUND": "CCOP(=O)(OCC)OC[C@]12CCC(C)(C)C[C@H]1C1=CC[C@@H]3[C@@]4(C)C/C(=C\\c5cccnc5)[C@H](OP(=O)(OCC)OCC)C(C)(C)[C@@H]4CC[C@@]3(C)[C@]1(C)CC2", "DISCRETE_LABEL": "active"}
{"COMPOUND": "N#Cc1c(-c2ccccc2)cc(-c2c[nH]c3ccccc23)nc1-c1c[nH]c2ccccc12", "DISCRETE_LABEL": "inactive"}

Source: PubChem BioAssay (NCI)
